Would you mind telling me the reported BINDING IL13 % Neutra at 100 μM of each entry?
Test system: IL-13 (Homo sapiens, UniProt P35225)
Sequence (P35225 25-146, species assumed): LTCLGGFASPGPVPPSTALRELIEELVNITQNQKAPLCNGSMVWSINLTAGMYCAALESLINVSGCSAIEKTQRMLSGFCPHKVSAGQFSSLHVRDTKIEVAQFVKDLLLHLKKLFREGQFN
Run description: Immunoassay binding test, IL-13
Condition label: 100 μM
Experimental: Microtiter plates (96 wells) are covered with 100 μl of receptor per well, and incubated overnight at 4° C. The following day, after 2 washes in PBS/Tween20, the plates are saturated with 150 μl of PBS/BSA 2% per well, for 2 h at 37° C. […] The plates are then read with a spectrophotometer at 450 nm, measuring the optical density for each well. […]
# number only, unit % dropped from output

Data request, read-out BINDING IL13 % Neutra at 100 μM, for CN(CCCCCN(Cc1ccnc(F)c1)Cc1cn(S(=O)(=O)c2ccccc2)c2ccccc12)C1CCCCC1 91.6

So what's the measured BINDING IL13 % Neutra at 100 μM for this one? CCCCN(CCOCCN(Cc1cccnc1F)Cc1cn(S(=O)(=O)c2ccccc2)c2ccccc12)C1CCCCC1 [Compound 99] 91.8

Could you share which BINDING IL13 % Neutra at 100 μM value was measured for FC(F)(F)c1cccc(-n2cc(CN(Cc3ccccn3)CC3CCCN(C4CCCCC4)C3)c3ccccc32)c1 (centres unmarked) ? 97.1

Which BINDING IL13 % Neutra at 100 μM is listed for FC(F)(F)c1cccc(-n2cc(CN(Cc3ccncc3)CC3CCCN(C4CCCCC4)C3)c3ccccc32)c1 (centres unmarked) ? 98.6

Given the entry O=S(=O)(c1ccccc1)n1cc(CN(CCCCNCc2cccnc2F)Cc2cn(S(=O)(=O)c3ccccc3)c3ccccc23)c2ccccc21 , report its measured BINDING IL13 % Neutra at 100 μM. 8

###

Test system: TNFa/TNFRI interaction (Homo sapiens)
Sequence (P01375 77-233 limits assumed): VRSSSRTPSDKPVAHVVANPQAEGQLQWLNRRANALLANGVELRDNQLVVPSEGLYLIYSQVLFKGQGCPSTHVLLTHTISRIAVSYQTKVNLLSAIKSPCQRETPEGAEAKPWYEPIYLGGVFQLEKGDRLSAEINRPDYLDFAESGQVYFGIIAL
Run description: TNFa/TNFRI interaction displacement test
Format: binding
Condition label: compounds at 50 μM; human TNFRI 100 ng/ml
Can you tell me Displacement (%) for the items I'm about to list?
Please reply with the bare figure in % and do not write the unit itself.

API: value(readout=Displacement (%), system=TNFa/TNFRI interaction (Homo sapiens)) for record CCN(CCOCCN(Cc1cccnc1F)Cc1cn(S(=O)(=O)c2ccccc2)c2ccccc12)C1CCCCC1 [Compound 100] 128

API: value(readout=Displacement (%), system=TNFa/TNFRI interaction (Homo sapiens)) for record O=S(=O)(c1ccccc1)n1cc(CN(CCCCNC2CCCCC2)Cc2cccnc2)c2ccccc21 167

Form field: Displacement (%) recorded for O=S(=O)(c1ccccc1)n1cc(CN(CCCCNCc2cccnc2F)Cc2cn(S(=O)(=O)c3ccccc3)c3ccccc23)c2ccccc21 with TNFa/TNFRI interaction (Homo sapiens) (enter value) 5

Notebook: pull reported Displacement (%) for TNFa/TNFRI interaction (Homo sapiens), entry CCN(CC)S(=O)(=O)NCCCCN(Cc1cccnc1F)Cc1cn(S(=O)(=O)c2ccccc2)c2ccccc12 3

Request: Displacement (%), test system TNFa/TNFRI interaction (Homo sapiens), entry CCCN(CCOCCN(Cc1cccnc1F)Cc1cn(S(=O)(=O)c2ccccc2)c2ccccc12)C1CCCC1 [Compound 106] 132

Write down the reported Displacement (%) of CN(CCCCN(Cc1cccnc1F)Cc1cn(S(=O)(=O)c2ccccc2)c2ccccc12)C1CCC1 , test system: TNFa/TNFRI interaction (Homo sapiens). 126

Lookup: Displacement (%) / TNFa/TNFRI interaction (Homo sapiens) / O=S(=O)(NCCCCN(Cc1cccnc1F)Cc1cn(S(=O)(=O)c2ccccc2)c2ccccc12)N1CCCCCC1 0

Displacement (%) of O=S(=O)(c1ccccc1)n1cc(CN(CCCCNC2CCC2)Cc2cccnc2F)c2ccccc21 on TNFa/TNFRI interaction (Homo sapiens)? 121

Item NCCN(Cc1cccnc1)Cc1cn(S(=O)(=O)c2ccccc2)c2ccccc12 with TNFa/TNFRI interaction (Homo sapiens) - Displacement (%)? 78

Request: Displacement (%), test system TNFa/TNFRI interaction (Homo sapiens), entry O=S(=O)(c1ccccc1)n1cc(CN(Cc2cccc(F)n2)CC2CCCN(C3CCCCC3)C2)c2ccccc21 (stereo not drawn) 152

Which Displacement (%) is reported with TNFa/TNFRI interaction (Homo sapiens) for this entry: FC(F)(F)c1cccc(-n2cc(CN(CCCNC3CCCCC3)Cc3ccncc3)c3ccccc32)c1 ? 172

What Displacement (%) appears in the records for this compound with TNFa/TNFRI interaction (Homo sapiens)? CCCN(CCCCN(Cc1cccnc1F)Cc1cn(S(=O)(=O)c2ccccc2)c2ccccc12)C1CCCCC1 219

API: value(readout= Displacement (%), system= TNFa/TNFRI interaction (Homo sapiens), query= CN(CCCCCN(Cc1cccnc1)Cc1cn(S(=O)(=O)c2ccccc2)c2ccccc12)C1CCCCC1 ) 165

Lookup: Displacement (%) / TNFa/TNFRI interaction (Homo sapiens) / NCCCCN(Cc1cccnc1F)Cc1cn(S(=O)(=O)c2ccccc2)c2ccccc12 88

Test system TNFa/TNFRI interaction (Homo sapiens); read-out Displacement (%); what value for Fc1cc(CN(Cc2cn(-c3cccc(C(F)(F)F)c3)c3ccccc23)CC2CCCN(C3CCCCC3)C2)ccn1 (stereo not drawn) ? 88

Enter reported Displacement (%) observed with TNFa/TNFRI interaction (Homo sapiens) for CN(CCCCN(Cc1cccc(F)n1)Cc1cn(S(=O)(=O)c2ccccc2)c2ccccc12)C1CCCCC1 153

Tell me reported Displacement (%) for CCCN(CCCCN(Cc1cccnc1F)Cc1cn(S(=O)(=O)c2ccccc2)c2ccccc12)C1CCCC1 , tested with TNFa/TNFRI interaction (Homo sapiens). 127

What reported Displacement (%) corresponds to CN(C)CCCCCN(Cc1cccc(F)n1)Cc1cn(S(=O)(=O)c2ccccc2)c2ccccc12 on TNFa/TNFRI interaction (Homo sapiens)? 137

Lab note: need Displacement (%) with TNFa/TNFRI interaction (Homo sapiens) for entry O=S(=O)(c1ccccc1)n1cc(CN(CCCCCNCc2ccnc(F)c2)Cc2ccnc(F)c2)c2ccccc21 , please look it up. 64

Enter reported Displacement (%) observed with TNFa/TNFRI interaction (Homo sapiens) for O=C(NCCCCN(Cc1cccnc1F)Cc1cn(S(=O)(=O)c2ccccc2)c2ccccc12)N1CCOCC1 111

Can you look up Displacement (%) on TNFa/TNFRI interaction (Homo sapiens) for CN(CCCCCN(Cc1cccnc1)Cc1cn(-c2cccc(C(F)(F)F)c2)c2ccccc12)C1CCCCC1 ? 157

The measured values listed here are drawn from patent US20230416239A1.
